tested on: HepG2; assay: cytotoxicity call (relative viability < 0.9); conditions: 10 µM
Screen size: about 39,000 compounds; about 3,300 (8.5%) were called active. The entries come from a sample that favours actives as a whole.
Respond with a class label; see active, inactive

Before answering, review these 6 worked examples.
What did the test return for `Cc1ccc(S(=O)(=O)Nc2cccc3c2O[C@@H](CN(C)Cc2ccc(-c4ccccc4)cc2)[C@@H](C)CN([C@H](C)CO)C3=O)cc1` ?
active

Hi team, can someone confirm the assay call for `Cc1ccc(S(=O)(=O)Nc2cccc3c2O[C@@H](CN(C)Cc2ccc(-c4ccccc4)cc2)[C@H](C)CN([C@H](C)CO)C3=O)cc1` ?
inactive

Check the results log: what was the call for `C[C@H](CO)N1C[C@H](C)[C@@H](CN(C)S(C)(=O)=O)Oc2ccc(NS(=O)(=O)c3ccc(F)cc3)cc2C1=O` ?
inactive

What is the recorded call for this molecule in the test? `Cc1ccc(S(=O)(=O)Nc2cccc3c2O[C@H](CN(C)Cc2ccc(-c4ccccc4)cc2)[C@H](C)CN([C@H](C)CO)C3=O)cc1`
active

Field: outcome | Entry: `C[C@H]1CN([C@@H](C)CO)C(=O)c2cccc(NS(=O)(=O)c3ccccc3)c2O[C@H]1CN(C)Cc1ccc(-c2ccccc2)cc1`
inactive

Recorded test call requested for `CN(C)C(=O)c1cc2c(c(-c3cccc(/C=C/c4ccccc4)c3)n1)[C@H](CCO)N([S@@](=O)C(C)(C)C)C2`
inactive

***
How did this test come out for `C[C@@H]1CN([C@H](C)CO)C(=O)c2cc(NC(=O)CCC(F)(F)F)ccc2O[C@@H](C)CCCCO[C@@H]1CN(C)S(=O)(=O)c1ccc(F)cc1` ?
inactive

* * *

tested on: HepG2; experiment: cytotoxicity call (relative viability < 0.9); settings: 10 µM
The whole screen tested about 39,000 compounds, of which about 3,300 (8.5%) were called active. Only a selection was taken, and actives are over-represented in it overall.
PARAMETER: cytotoxicity call

For record `C[C@@H]1CC=CC[C@H](c2cccc(Cl)c2)NC(=O)[C@@H](Cc2ccccc2)N(C)C(=O)c2ccccc2O1` the listed cytotoxicity call is inactive

Notebook: `C[C@@H]1CN([C@@H](C)CO)C(=O)Cc2cc(NC(=O)Cn3cnnn3)ccc2O[C@@H]1CN(C)Cc1ccc(-c2ccccc2)cc1` , cytotoxicity call read as inactive

Lookup result for `C=CCOC(=O)[C@@H]1[C@H]2C(=O)O[C@H](c3ccccc3)[C@H](c3ccccc3)N2[C@H](c2ccc(OCCOC(=O)[C@H]3C[C@H]4C(=O)N[C@@H](CCCCNC(C)=O)C(=O)N4[C@H]3c3cccc(OCCO)c3)cc2)[C@@]12C(=O)Nc1ccc(I)cc12` ; measured cytotoxicity call: inactive

GET /value?item= `C[C@@H]1CCCCO[C@@H](CN(C)C(=O)Nc2cccc3ccccc23)[C@H](C)CN([C@@H](C)CO)C(=O)c2cc(NS(=O)(=O)c3ccc(Cl)cc3)ccc2O1` &field=cytotoxicity call returns inactive

Notebook: `C[C@@H]1CN([C@@H](C)CO)C(=O)c2ccccc2-c2ccccc2CO[C@H]1CN(C)Cc1ccccc1C(F)(F)F` , cytotoxicity call read as inactive

According to the records, this molecule `NNC(=S)Nc1cccc(F)c1` displays cytotoxicity call of inactive

Continuing:
The molecule listed as `C[C@H](CO)N1C[C@H](C)[C@H](CN(C)C(=O)c2ccccc2)OCCCC[C@H](C)Oc2ccc(NS(=O)(=O)c3cccs3)cc2C1=O` shows cytotoxicity call equal to inactive

Field cytotoxicity call (entry `COc1ccccc1S(=O)(=O)N[C@H]1CC[C@@H](CCNC(=O)C2CCOCC2)O[C@H]1CO` ) reads inactive

Field cytotoxicity call (entry `O=C(C[C@H]1C[C@H]2c3cc(NS(=O)(=O)c4ccc(F)cc4)ccc3O[C@H]2[C@H](CO)O1)NC1CCCCC1` ) reads inactive

* * *

system: HepG2; assay: cytotoxicity call (relative viability < 0.9); conditions: 10 µM
Hit rate of the full screen: of about 39,000 compounds, about 3,300 (8.5%) were called active. Many of the other results were omitted from the sample, so actives are more common in it than they were.
Select the matching outcome among YES for active, NO for inactive

Please review the following examples before continuing.
Name the outcome recorded for `CC(C)c1ccc2c(ccc[n+]2C)c1` in the assay.
NO

What did this assay record as the result for `O=C(O)c1cc(O)c(O)c(O)c1` ?
NO

Give the logged outcome of this assay for the following compound: O=C(OC1Cc2c(O)cc(O)cc2OC1c1ccc(O)c(O)c1)c1cc(O)c(O)c(O)c1 (centres undefined)
NO

Further cases:
# lookup: test call for O=C(OCC1OC(OC(=O)c2cc(O)c(O)c(OC(=O)c3cc(O)c(O)c(O)c3)c2)C(OC(=O)c2cc(O)c(O)c(OC(=O)c3cc(O)c(O)c(O)c3)c2)C(OC(=O)c2cc(O)c(O)c(OC(=O)c3cc(O)c(O)c(O)c3)c2)C1OC(=O)c1cc(O)c(O)c(OC(=O)c2cc(O)c(O)c(O)c2)c1)c1cc(O)c(O)c(OC(=O)c2cc(O)c(O)c(O)c2)c1 (centres undefined)
YES

* * *

system: HepG2; experiment: cytotoxicity call (relative viability < 0.9); conditions: 10 µM
About 3,300 (8.5%) of roughly 39,000 compounds were called active. The full list was thinned out, with actives kept by preference.
Bench note: report the call from true for active, false for inactive

# example entries with known answers
Which outcome was assigned to `C[C@@H]1CN([C@@H](C)CO)C(=O)c2cc(NC(=O)CCCCCC(=O)Nc3ccccc3N)ccc2O[C@@H]1CN(C)Cc1ccc(-c2ccccc2)cc1` in this test?
true

For `C[C@H](CO)N1C[C@H](C)[C@H](CN(C)C(=O)Nc2ccc3c(c2)OCO3)OCc2cnnn2CCCC1=O` , which call appears in the assay record?
false

Per the assay record, what outcome was assigned to `CCS(=O)(=O)Nc1ccc2c(c1)C(=O)N(C)[C@@H]1CC[C@H](CC(=O)N3CCN(C)CC3)O[C@@H]1CO2` ?
false

Others:
For this molecule, state the assay outcome: `COc1ccc(NC(=O)Nc2ccc3c(c2)C(=O)N([C@@H](C)CO)C[C@@H](C)[C@@H](CN(C)Cc2ccncc2)OCCCC[C@@H](C)O3)cc1`
false

How did this test come out for `C[C@@H]1CN([C@H](C)CO)S(=O)(=O)c2ccc(-c3ccccc3F)cc2O[C@@H]1CN(C)Cc1cncnc1` ?
false

Name the outcome recorded for `C[C@H](CO)N1C[C@H](C)[C@@H](CN(C)Cc2ccc(C(F)(F)F)cc2)Oc2ccc(NC(=O)CCCCCC(=O)Nc3ccccc3N)cc2C1=O` in the assay.
false

Test call for this molecule, please: `O=C(/C=C/c1ccc(O)c(O)c1)O[C@H]1[C@H](O)[C@@H](O)[C@H](OCCc2ccc(O)c(O)c2)O[C@@H]1CO`
false

* * *

system: HepG2; experiment: cytotoxicity call (relative viability < 0.9); conditions: 10 µM
Among all 39,000 compounds or so, about 3,300 (8.5%) were called active. The list comes from a sample in which actives are over-represented; it also holds close analogues and randomly drawn compounds.
Form entry, call: pick from active, inactive

Solved entries:
Name the outcome recorded for `N#Cc1cnc2c(C(N)=O)cnn2c1N` in the assay.
inactive

Please state the recorded outcome for this molecule: `C[C@@H]1CCCCO[C@@H](CN(C)S(=O)(=O)c2cccs2)[C@H](C)CN([C@@H](C)CO)C(=O)c2cc(NS(=O)(=O)c3cn(C)cn3)ccc2O1`
inactive

What did the test return for `C[C@H]1CN([C@@H](C)CO)C(=O)Cc2cc(NC(=O)c3ccncc3)ccc2O[C@H]1CN(C)Cc1ccncc1` ?
inactive

Hello, I am checking results. What call was entered for `Cc1ccc(S(=O)(=O)Nc2ccc3c(c2)C(=O)N([C@@H](C)CO)C[C@H](C)[C@@H](CN(C)C(=O)C2CCCCC2)OCCCC[C@@H](C)O3)cc1` ?
active

***
Which outcome did this test record for the molecule `C[C@@H]1CN([C@H](C)CO)C(=O)CCCn2cc(nn2)CO[C@H]1CN(C)S(=O)(=O)c1ccc(Oc2ccccc2)cc1` ?
inactive

Assay result, entry `Cc1ccc(S(=O)(=O)Nc2cccc3c2O[C@H](CN(C)S(=O)(=O)c2cccs2)[C@H](C)CN([C@H](C)CO)C3=O)cc1` — outcome?
inactive

So what was the verdict on `COC(=O)C[C@@H]1C[C@@H](C)[C@@H]2C(=O)c3c(O)c4c(c(O)c3C(=O)[C@@H]2[C@@H]1O)[C@H]1C[C@@H](O)[C@@]4(O)[C@@H](C)O1` in this test?
active

* * *

test system: HepG2; experiment: cytotoxicity call (relative viability < 0.9); conditions: 10 µM
Among all 39,000 compounds or so, about 3,300 (8.5%) were called active. Shown is part of a subset that was picked to be rich in actives.
PARAMETER: cytotoxicity call

The cases that follow already have their cytotoxicity call on record.
Input COC1C=CC23c4cc5c(cc4CN(CC2O)C3C1)OCO5 (stereo not drawn) . Output cytotoxicity call: inactive

Lab note: measured cytotoxicity call of `C[C@H]1CN([C@@H](C)CO)C(=O)Cc2cc(NC(=O)CCN3CCOCC3)ccc2O[C@@H]1CN(C)Cc1ccncc1` was inactive

Value of measured cytotoxicity call for the entry `C[C@@H]1CN([C@H](C)CO)C(=O)Cc2cc(NC(=O)C3CCCCC3)ccc2O[C@H]1CN(C)S(C)(=O)=O` : inactive

Lab book: cytotoxicity call of `C[C@@H]1CN([C@@H](C)CO)C(=O)c2cc(NC(=O)Cc3ccccc3)ccc2O[C@@H]1CN(C)S(=O)(=O)c1ccccc1` noted as inactive

Others:
The value of cytotoxicity call measured for the molecule `CCCC(=O)Nc1ccc2c(c1)OC[C@@H](C)N(S(=O)(=O)c1cn(C)cn1)C[C@@H](C)[C@H](OC)CN(C)C2=O` turned out to be inactive

get_value(item= `C[C@@H]1CN([C@H](C)CO)C(=O)Cc2cc(NC(=O)Cc3ccccc3)ccc2O[C@H]1CN(C)S(=O)(=O)c1ccc(F)cc1` , readout=cytotoxicity call) returns inactive

// sample `C[C@@H]1CCCCO[C@H](CN(C)C(=O)Nc2ccc(C(F)(F)F)cc2)[C@@H](C)CN([C@H](C)CO)C(=O)c2cc(NS(C)(=O)=O)ccc2O1` , its cytotoxicity call was inactive

// `O=C1[N-]C(=O)C(c2ccccc2)(c2ccccc2)N1.[Na+]` : cytotoxicity call value = inactive
